Origin of the recorded values: patent US10377747B2

tested on: A431 (human epidermal cancer cells, EGFR wild type); assay: Tumor cell proliferation and growth inhibition analysis (Cell Titer-Glo, 72 h), A431; type: cell-based; settings: A-431, 72 h exposure
Quantity: GI50 (nM)

Known results for compounds:
{"columns": ["Smiles structure", "Quantity", "Value units", "Numeric readout"],
 "data": [
  ["C=CC(=O)Nc1cc(Nc2cc(-c3cn(C)c4ncccc34)ccn2)c(OC)cc1N(C)CCN(C)C", "GI50", "nM", 198],
  ["C=CC(=O)Nc1cc(Nc2ncnc(-c3cccc4cc[nH]c34)n2)c(OC(F)F)cc1N(C)CCN(C)C", "GI50", "nM", 100],
  ["C=CC(=O)Nc1cc(Nc2ncnc(-c3cccc4cc[nH]c34)n2)c(OC)cc1N(C)CCN(C)C", "GI50", "nM", 147]
]}

a: C=CC(=O)Nc1cc(Nc2nccc(-c3cn(C)c4cccnc34)n2)c(OC(F)F)cc1N1CCC(N(C)C)CC1
b: C=CC(=O)Nc1cc(Nc2nccc(-c3cn(C)c4cccnc34)n2)c(OC)cc1N1CCC(N(C)C)CC1
Endpoint returns the identifier whose GI50 is numerically larger, either a or b . Returns: label corresponding to the selected item.
b

----------
tested on: A431 (human epidermal cancer cells, EGFR wild type); assay: Tumor cell proliferation and growth inhibition analysis (Cell Titer-Glo, 72 h), A431; type: cell-based; details: A-431, 72 h exposure
Quantity: GI50 (nM)

{"columns": ["Compound", "Value units", "GI50"],
 "data": [
  ["C=CC(=O)Nc1cc(Nc2ncnc(-c3cn(C)c4ncccc34)n2)c(OC(F)F)cc1N(C)CCN(C)C [Example 38]", "nM", 144]
]}

A: C=CC(=O)Nc1cc(Nc2nccc(-c3nn(C)c4ccsc34)n2)c(OC)cc1N(C)CCN(C)C [Example 24]
B: C=CC(=O)Nc1cc(Nc2cc(-c3cnc4ccccn34)ccn2)c(OC)cc1N(C)CCN(C)C [Example 44]
Which value of GI50 is numerically greater: that of A or that of B ? Please reply using the label of the selected record.
B
(B: 638 nM, A: 209 nM)

----------
system: A431 (human epidermal cancer cells, EGFR wild type); assay: Tumor cell proliferation and growth inhibition analysis (Cell Titer-Glo, 72 h), A431; type: cell-based; settings: A-431, 72 h exposure
Quantity: GI50 (µM)

{"columns": ["Compound", "Value units", "Numeric readout"],
 "data": [
  ["C=CC(=O)Nc1cc(Nc2nccc(-c3c(C)n(C)c4sc(C)cc34)n2)c(OC)cc1N(C)CCN(C)C [Example 31]", "µM", 0.625]
]}

a: C=CC(=O)Nc1cc(Nc2cc(-c3nn(C)c4cccnc34)ccn2)c(OC)cc1N(C)CCN(C)C [Example 42]
b: C=CC(=O)Nc1cc(Nc2nccc(-c3cn(C)c4cccnc34)n2)c(OC(F)F)cc1N1CCN(C)CC1 [Example 19]
c: C=CC(=O)Nc1cc(Nc2nccc(-c3cn(C)c4cccnc34)n2)c(OC)cc1N(C)CCN(C)C [Example 12]
Reorder: GI50, max to min. Give the labels in the order specified.
c, b, a
(c: 10.2 µM, b: 1.44 µM, a: 0.264 µM)

P: C=CC(=O)Nc1cc(Nc2cc(-c3cnn4cccnc34)ccn2)c(OC)cc1N(C)CCN(C)C [Example 43]
Q: C=CC(=O)Nc1cc(Nc2ncnc(-c3cccc4cc[nH]c34)n2)c(OC)cc1N1CCN(C)CC1 [Example 34]
Given the listed items, does P or Q have the lesser reported GI50? Pick one; state its label.
P
